These measurements were taken from PubChem BioAssay (NCATS).

Tested on: CP286
method: qHTS profiling for inhibitors of Plasmodium falciparum proliferation (AID 504749); further: nearly all actives have a fitted effect of over 60% in size
condition_label: P. falciparum in erythrocytes, SYBR Green DNA, 72 h; series mostly up to 28.7 µM
Inconclusive results are not listed. Calls of active or inactive are those of the source. The call rests on the fitted dose curve; in most records, active means well fitted inhibition curve with a large enough effect; inconclusive means small, poorly fitted or top-dose-only effect; inactive means flat fitted curve, though single readings scatter.
Form entry, call: pick from active, inactive

Incoming: Which result was noted for this compound in the test: C/C=C/C=N/NC(=O)c1ccncc1
Outgoing: inactive

Incoming: What did this assay record as the result for COc1ccc(C(=O)c2ccccc2)c(O)c1 ?
Outgoing: inactive

Incoming: Query: recorded result category for NCCNc1cccc2ccccc12 in this test
Outgoing: inactive

Incoming: Please state the recorded outcome for this compound: OCCOCCN1CCN(C2=Nc3ccccc3Sc3ccccc32)CC1
Outgoing: inactive

Incoming: Outcome logged for CCC(CC)(CC(=O)Nc1cccc(/C=C/c2nc(C3CCC3)cs2)c1)C(=O)O in this assay:
Outgoing: inactive

Incoming: Hi, do you know how NS(=O)(=O)Cc1noc2ccccc12 came out in this test?
Outgoing: inactive

Incoming: Given O=C(Nc1cccc(C2=NCCN2)c1)Nc1cccc(C2=NCCN2)c1 , state the outcome it received in this test.
Outgoing: active

Incoming: In this assay, the call recorded for CC(C)CCCC(C)N (configuration not stated) was what?
Outgoing: inactive

Incoming: Answer briefly: the call reported for Cc1cccc(C)c1NC(=O)CN1CCCCCC1 in this assay.
Outgoing: inactive

Incoming: Record lookup: outcome of this test for CC(=O)Nc1ncc([N+](=O)[O-])s1 ?
Outgoing: inactive

Incoming: Please state the recorded outcome for this compound: CC(=O)O[C@]1(C(C)=O)CC[C@H]2[C@@H]3C=C(Cl)C4=CC(=O)CC[C@]4(C)[C@H]3CC[C@@]21C
Outgoing: active

Incoming: Recorded test outcome, item Nc1ccc(S(=O)(=O)NCc2ccccc2)cc1
Outgoing: inactive

----------
System: CP247
method: qHTS profiling for inhibitors of Plasmodium falciparum proliferation (AID 504749); further: nearly all actives have a fitted effect of over 60% in size
condition_label: P. falciparum in erythrocytes, SYBR Green DNA, 72 h; series mostly up to 28.7 µM
Inconclusive results are not listed. Calls of active or inactive are those of the source. The call rests on the fitted dose curve; in most records, active means well fitted inhibition curve with a large enough effect; inconclusive means small, poorly fitted or top-dose-only effect; inactive means flat fitted curve, though single readings scatter.
A correct response names exactly one class from active, inactive

Incoming: Could you please tell me the result logged for CC(=O)O[C@H]1C[C@@H]2CC[C@@H]3[C@H](CC[C@@]4(C)[C@H]3C[C@H]([N+]3(C)CCCCC3)[C@@H]4OC(C)=O)[C@@]2(C)C[C@@H]1N1CCCCC1 in this assay?
Outgoing: inactive

Incoming: Please state the recorded outcome for this molecule: O=C(O)C(Cc1cc(I)c(O)c(I)c1)c1ccccc1 (centres undefined)
Outgoing: inactive

Incoming: Which result was noted for this molecule in the test: CC(=O)Nc1ccc(OC(=O)c2ccccc2OC(C)=O)cc1
Outgoing: inactive

Incoming: Which outcome was assigned to CCOC(=O)[C@H](CCc1ccccc1)N[C@@H](C)C(=O)N1[C@H](C(=O)O)C[C@H]2CCCC[C@@H]21 in this test?
Outgoing: inactive

Incoming: // outcome(item) with item = CCOc1ccccc1OCCN[C@H](C)Cc1ccc(OC)c(S(N)(=O)=O)c1
Outgoing: inactive

Incoming: I would be grateful if you could indicate the recorded call for CCC(CC)(CC(=O)Nc1cccc(/C=C/c2nc(C3CCC3)cs2)c1)C(=O)O .
Outgoing: inactive

Incoming: Look up the recorded call for O=C(O)CCNC(=O)c1ccccc1 in this test.
Outgoing: inactive

Incoming: So what was the verdict on CC(=O)OCC(=O)[C@H]1CC[C@H]2[C@@H]3CCC4=CC(=O)CC[C@]4(C)[C@H]3CC[C@]12C in this test?
Outgoing: inactive

Incoming: State the result this test recorded for CCCc1ncc(C[n+]2ccccc2C)c(N)n1 .
Outgoing: inactive

Incoming: Tell me the assay call for CCCCCCCCCCCCCC(=O)OC(C)C please.
Outgoing: inactive

Incoming: For this molecule, state the assay outcome: CCCCc1cc2ccccc2c(OCCN(C)C)n1
Outgoing: inactive

Incoming: Test call for this molecule, please: Cc1c[nH]c2ccccc12
Outgoing: inactive

Incoming: Look up the recorded call for COc1ccc(C(=O)c2ccccc2)c(O)c1 in this test.
Outgoing: inactive

Incoming: I would be grateful if you could indicate the recorded call for O=C(NCCc1c[nH]c2ccccc12)c1cccnc1 .
Outgoing: inactive

Incoming: // outcome(item) with item = CCN1/C(=C/C=C/c2sc3ccccc3[n+]2CC)Sc2ccccc21
Outgoing: active

Incoming: Hi team, can someone confirm the assay call for Cc1cccc(C)c1NC(=O)c1ccccc1C(=O)O ?
Outgoing: inactive

Incoming: Given O=C1C(CCS(=O)c2ccccc2)C(=O)N(c2ccccc2)N1c1ccccc1 (centres undefined) , state the outcome it received in this test.
Outgoing: inactive

Incoming: Given Cc1cc(NS(=O)(=O)c2ccc(N)cc2)nc(C)n1 , state the outcome it received in this test.
Outgoing: inactive

Incoming: Just curious, what result did COc1ccc(/C=N/NC(=O)c2ccncc2)cc1OC get here?
Outgoing: inactive

Incoming: Dear colleague, could you share the recorded outcome for CN1CCN(c2cc3c(cc2F)c(=O)c(C(=O)O)cn3-c2ccc(F)cc2)CC1 when you have a moment?
Outgoing: inactive

Incoming: Please let me know the test result on file for Nc1nc(-c2ccccc2)c(Br)c(=O)[nH]1 .
Outgoing: inactive

Incoming: What did the test return for CC(=O)Nc1ccc(S(=O)(=O)Nc2ccc([N+](=O)[O-])cc2)cc1 ?
Outgoing: inactive

Incoming: Entry COc1ccc(C(=O)c2ccccc2O)c(O)c1 : call = ?
Outgoing: inactive

Incoming: For CC(C)(C)NC[C@H](O)COc1cccc2c1CCCC2=O , which call appears in the assay record?
Outgoing: inactive

Incoming: I would be grateful if you could indicate the recorded call for CC(=O)OC[C@H]1O[C@@H](n2ncc(=O)[nH]c2=O)[C@H](OC(C)=O)[C@@H]1OC(C)=O .
Outgoing: inactive

Incoming: Field: outcome | Entry: O=C(O)Cc1csc(-c2ccc(Cl)cc2)n1
Outgoing: inactive

Incoming: Hi, do you know how COc1cc(NS(=O)(=O)c2ccc(N)cc2)ncn1 came out in this test?
Outgoing: inactive

Incoming: Which outcome was assigned to CCC(C(=O)OCCOCCN(CC)CC)c1ccccc1 (centres undefined) in this test?
Outgoing: inactive

Incoming: Hey, what did the test say about OCc1ccccn1 ?
Outgoing: inactive

Incoming: Query: recorded result category for C#C[C@]1(O)CC[C@H]2[C@@H]3CCc4cc(OC)ccc4[C@H]3CC[C@@]21C in this test
Outgoing: inactive

Incoming: For this molecule, state the assay outcome: CCOc1ccccc1C(N)=O
Outgoing: inactive

Incoming: Dear colleague, could you share the recorded outcome for COc1cc(C(=S)N2CCOCC2)ccc1O when you have a moment?
Outgoing: inactive

Incoming: Per the assay record, what outcome was assigned to Cl/C(=C\n1cncn1)c1ccc(Cl)cc1Cl ?
Outgoing: inactive

Incoming: Record request — test call for C=CCN1CCc2nc(N)sc2CC1
Outgoing: inactive

Incoming: Per the assay record, what outcome was assigned to CC(=O)NO ?
Outgoing: inactive

Incoming: In this assay, the call recorded for O=C1C(O)=C(O)C(=O)C(O)=C1O was what?
Outgoing: inactive

Incoming: Record lookup: outcome of this test for N=C(N)N1CCc2ccccc2C1 ?
Outgoing: inactive

Incoming: I would be grateful if you could indicate the recorded call for O=C(O)P(=O)(O)O .
Outgoing: inactive

Incoming: # fetch the recorded call for COc1ccc2c(c1)c1c3n2CCN(C)C3=NCC1 here
Outgoing: inactive

Incoming: Short answer needed: outcome of this test for C/C=C/C=N/NC(=O)c1ccncc1 ?
Outgoing: inactive

Incoming: Answer briefly: the call reported for CC1=C(C(=O)O)N2C(=O)[C@@H](NC(=O)[C@H](N)c3ccccc3)[C@H]2SC1 in this assay.
Outgoing: inactive

Incoming: Recorded test outcome, item Cc1cccc(C)c1NC(=O)CN1CCCC1
Outgoing: inactive

Incoming: Kindly provide the recorded test outcome for the following molecule: CCCCCCCCCCCCCC[N+](C)(C)Cc1ccccc1
Outgoing: active

Incoming: GET /call?item= CCN(CC)CCNC(=O)c1cc(Br)c(N)cc1OC returns the recorded outcome of this test.
Outgoing: inactive

Incoming: Entry CCCCCCCC/C=C\CCCCCCCCN : call = ?
Outgoing: inactive

Incoming: Given CCOC(=O)c1c(N)sc2c1CCN(Cc1ccccc1)C2 , state the outcome it received in this test.
Outgoing: active

Incoming: Status in this test for CN1CCN(C2=Nc3ccccc3Sc3ccc(Cl)cc32)CC1 ?
Outgoing: inactive

Incoming: Hi, do you know how CCCN(CCC)S(=O)(=O)c1ccc(C(=O)O)cc1 came out in this test?
Outgoing: inactive

Incoming: Assay outcome for O=C(c1ccc(F)cc1)C1CCN(CCn2c(=S)[nH]c3ccccc3c2=O)CC1 : what was it?
Outgoing: active

----------
Test system: CP252
method: qHTS profiling for inhibitors of Plasmodium falciparum proliferation (AID 504749); further: nearly all actives have a fitted effect of over 60% in size
condition_label: P. falciparum in erythrocytes, SYBR Green DNA, 72 h; series mostly up to 28.7 µM
Inconclusive results are not listed. Calls of active or inactive are those of the source. Calls follow the shape of the dose curve; as a rule, active = well fitted inhibition curve with a large enough effect; inconclusive = small, poorly fitted or top-dose-only effect; inactive = flat fitted curve, though single readings scatter.
Outcome field: choose from active, inactive

Incoming: # fetch the recorded call for CCOC(=O)Nc1ccc2c(c1)N(C(=O)CCN1CCOCC1)c1ccccc1S2 here
Outgoing: inactive

Incoming: What did the test return for NCCNc1cccc2ccccc12 ?
Outgoing: inactive

Incoming: Fill in: this test's call for COc1ccc(-c2cc(C(F)F)nn2-c2ccc(S(N)(=O)=O)cc2)cc1F is ___
Outgoing: inactive

Incoming: Outcome logged for O=C1C(=O)c2ccccc2C(O)=C1C1CCC(c2ccc(Cl)cc2)CC1 (stereo unspecified) in this assay:
Outgoing: active

Incoming: I'd appreciate the recorded outcome for O=C(O)Cc1csc(-c2ccc(Cl)cc2)n1 from this test.
Outgoing: inactive

Incoming: Would you mind telling me which call this test gave NC(N)=NCc1cccc(I)c1 ?
Outgoing: inactive
